Recorded IC50 by entry
Target: UniProtKB P52333
Sequence (P52333 1-1124): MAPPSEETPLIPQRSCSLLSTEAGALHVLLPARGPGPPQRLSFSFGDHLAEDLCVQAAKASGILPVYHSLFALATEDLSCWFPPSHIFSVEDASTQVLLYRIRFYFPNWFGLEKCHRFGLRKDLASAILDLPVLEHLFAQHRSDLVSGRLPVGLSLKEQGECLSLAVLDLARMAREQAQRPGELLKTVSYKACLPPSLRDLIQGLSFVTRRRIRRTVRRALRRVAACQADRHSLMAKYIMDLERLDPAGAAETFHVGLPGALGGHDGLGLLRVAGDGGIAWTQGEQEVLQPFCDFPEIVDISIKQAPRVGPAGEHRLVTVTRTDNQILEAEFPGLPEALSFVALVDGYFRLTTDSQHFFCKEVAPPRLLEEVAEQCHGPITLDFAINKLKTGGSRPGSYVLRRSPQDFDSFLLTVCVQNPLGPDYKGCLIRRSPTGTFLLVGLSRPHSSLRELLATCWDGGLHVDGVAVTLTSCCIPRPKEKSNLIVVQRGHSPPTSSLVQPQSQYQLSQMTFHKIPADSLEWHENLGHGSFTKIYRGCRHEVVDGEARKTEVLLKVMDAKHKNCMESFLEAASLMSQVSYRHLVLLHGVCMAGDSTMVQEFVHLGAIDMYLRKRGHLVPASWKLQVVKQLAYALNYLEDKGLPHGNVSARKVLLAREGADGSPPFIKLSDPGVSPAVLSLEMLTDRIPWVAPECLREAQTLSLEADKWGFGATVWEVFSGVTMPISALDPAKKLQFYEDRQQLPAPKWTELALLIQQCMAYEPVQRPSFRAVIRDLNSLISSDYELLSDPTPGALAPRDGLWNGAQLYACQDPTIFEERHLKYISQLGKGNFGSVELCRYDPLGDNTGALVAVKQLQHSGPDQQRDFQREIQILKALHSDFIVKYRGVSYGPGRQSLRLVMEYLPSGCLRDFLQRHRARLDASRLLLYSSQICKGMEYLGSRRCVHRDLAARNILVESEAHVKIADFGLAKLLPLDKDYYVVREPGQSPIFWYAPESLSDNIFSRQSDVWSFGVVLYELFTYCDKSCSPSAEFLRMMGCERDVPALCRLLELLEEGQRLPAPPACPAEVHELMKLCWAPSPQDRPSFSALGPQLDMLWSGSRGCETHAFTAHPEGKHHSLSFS
Assay: JAK kinase inhibition assay (EZ Reader, peptide substrate phosphorylation) - JAK3
Type: biochemical
Conditions: JAK3 kinase 1 nM; 8 concentration points, max 10 μM

| COMPOUND | IC50 |
| --- | --- |
| CN1CCN(c2ccc(-c3ccnc(Nc4cnn(C)c4)n3)cc2)CC1 | ≥ 10 µM |
| Cn1cc(Nc2nccc(-c3ccc(NS(=O)(=O)CCC(F)(F)F)cc3)n2)cn1 | ≥ 10 µM |
| Cc1cc(-c2ccnc(Nc3cnn(C)c3)n2)ccc1C(=O)NCC(F)(F)F | > 10 µM |
| Cn1cc(Nc2nccc(-c3ccc(C(=O)NCC(F)(F)F)nc3)n2)cn1 | 1 to 10 µM |
| CCCCS(=O)(=O)Nc1ccc(-c2ccnc(Nc3cnn(C)c3)n2)cc1 | 1 to 10 µM |
| Cn1cc(Nc2nccc(-c3ccc(NC(=O)C4CC4(F)F)nc3)n2)cn1 (stereo not drawn) | 0.1 to 1 µM |
| Cn1cc(Nc2nccc(-c3ccc(NC(=O)C4CC4)cc3)n2)cn1 | 1 to 10 µM |
| Cn1cc(Nc2nccc(-c3ccc(NC(=O)C(F)F)nc3)n2)cn1 | 1 to 10 µM |

Query compound follows.
IC50 in this record for Cn1cc(Nc2nccc(-c3ccc(C(=O)NCC(F)(F)F)cc3)n2)cn1 : 1 to 10 µM
